Ref: paper PMC3676450

Tested On: hM1 mAcChR (Homo sapiens)
Sequence (P11229 whole entry): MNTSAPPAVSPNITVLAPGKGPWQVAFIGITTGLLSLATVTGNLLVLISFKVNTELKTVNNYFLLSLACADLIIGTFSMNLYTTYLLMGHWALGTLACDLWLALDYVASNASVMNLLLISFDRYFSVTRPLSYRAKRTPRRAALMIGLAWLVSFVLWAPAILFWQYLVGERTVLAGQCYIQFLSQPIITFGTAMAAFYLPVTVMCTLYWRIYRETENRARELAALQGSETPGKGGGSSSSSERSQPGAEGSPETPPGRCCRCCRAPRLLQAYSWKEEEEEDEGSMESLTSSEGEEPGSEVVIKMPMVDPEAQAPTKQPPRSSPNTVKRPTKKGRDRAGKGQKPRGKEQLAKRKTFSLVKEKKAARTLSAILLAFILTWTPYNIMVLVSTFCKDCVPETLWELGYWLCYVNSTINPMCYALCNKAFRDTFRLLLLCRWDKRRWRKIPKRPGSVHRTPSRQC
Method Summary: [3H]N-methylscopolamine
Assay type: binding
Outcome Measure: binding affinity at M1 receptor (in words)

>>> experimental_value("CCCN1CCC(c2ccccc2)=C(C(=O)OCCc2ccc(OC)cc2)C1")
"eliminated affinity"
>>> experimental_value("CCCCN1CCC(c2ccccc2)=C(C(=O)OCCc2ccc(OC)cc2)C1")
"eliminated affinity"
>>> experimental_value("COc1ccc(CCOC(=O)C2=C(c3ccccc3)CCN(Cc3ccc(OC)cc3)C2)cc1")
"eliminated affinity"

====

# M2/M5 per entry
Tested On: hM5 mAcChR (Homo sapiens)
Method Summary: [3H]NMS binding to membranes from CHO-K1 cells expressing hM5

>>> experimental_value("CN1CCC(c2ccccc2F)=C(C(=O)OCCc2ccc3c(c2)CCO3)C1")
"540 (0.7)"
>>> experimental_value("CN1CCC(c2ccccc2)=C(C(=O)OCCc2ccc3c(c2)CCO3)C1")
"1,170 (20)"
>>> experimental_value("COc1ccc(CCOC(=O)C2=C(c3cccc(F)c3)CCN(C)C2)cc1OC")
">100,000 (>30)"

Entry CN1CCC(c2ccccc2)=C(C(=O)OCCc2cccc3ccccc23)C1 has what M2/M5?
>100,000 (>20)

Entry CCN1CCC(c2ccccc2)=C(C(=O)OCCc2ccc3c(c2)CCO3)C1 has what M2/M5?
>100,000 (>435)

====

# M1/M5 per entry
Tested On: hM5 mAcChR (Homo sapiens)
Sequence (P08912 1-532): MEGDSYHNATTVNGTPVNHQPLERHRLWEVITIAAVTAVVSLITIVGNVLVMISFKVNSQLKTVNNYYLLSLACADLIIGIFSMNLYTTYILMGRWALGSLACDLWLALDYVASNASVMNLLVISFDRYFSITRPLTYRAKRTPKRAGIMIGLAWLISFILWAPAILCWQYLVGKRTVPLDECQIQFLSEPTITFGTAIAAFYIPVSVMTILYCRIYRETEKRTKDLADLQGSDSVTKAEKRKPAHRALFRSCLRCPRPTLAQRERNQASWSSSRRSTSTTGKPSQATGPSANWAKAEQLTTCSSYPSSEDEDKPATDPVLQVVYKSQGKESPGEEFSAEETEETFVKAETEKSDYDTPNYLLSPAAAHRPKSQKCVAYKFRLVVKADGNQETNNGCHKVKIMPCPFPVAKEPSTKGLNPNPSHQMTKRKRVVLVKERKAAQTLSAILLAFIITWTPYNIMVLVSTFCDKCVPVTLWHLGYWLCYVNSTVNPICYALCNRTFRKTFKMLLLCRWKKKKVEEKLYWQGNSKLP
Method Summary: [3H]NMS binding to membranes from CHO-K1 cells expressing hM5

>>> experimental_value("CN1CCC(c2ccccc2)=C(C(=O)OCCc2ccc3c(c2)CCO3)C1 [Compound 45]")
"290 (4.8)"

Entry CCN1CCC(c2ccccc2)=C(C(=O)OCCc2ccc3c(c2)CCO3)C1 [Compound 28] has what M1/M5?
1,390 (6.0)

Entry CN1CCC(c2ccccc2F)=C(C(=O)OCCc2ccc3c(c2)CCO3)C1 [Compound 63] has what M1/M5?
5,270 (7.1)

Entry CN1CCC(c2ccccc2)=C(C(=O)OCCc2cccc3ccccc23)C1 [Compound 57] has what M1/M5?
24,400 (4.8)

====

Tested On: hM5 mAcChR (Homo sapiens)
Method Summary: [3H]NMS binding to membranes from CHO-K1 cells expressing hM5
# M4/M5 per entry

>>> experimental_value("CN1CCC(c2ccccc2F)=C(C(=O)OCCc2ccc3c(c2)CCO3)C1")
"5,740 (7.8)"
>>> experimental_value("COc1ccc(CCOC(=O)C2=C(c3cccc(F)c3)CCN(C)C2)cc1OC")
">100,000 (>30)"
>>> experimental_value("CN1CCC(c2ccccc2)=C(C(=O)OCCc2cccc3ccccc23)C1")
">100,000 (>20)"
>>> experimental_value("CN1CCC(c2ccccc2)=C(C(=O)OCCc2ccc3c(c2)CCO3)C1")
"1,890 (32)"

Here is the next item to consider.
Entry CCN1CCC(c2ccccc2)=C(C(=O)OCCc2ccc3c(c2)CCO3)C1 has what M4/M5?
10,500 (46)
